- measuredOn: mu3 opiate receptor (Homo sapiens, UniProt P35372)
- Construct: aliquots of membrane suspensions from human granulocytes and lung non-small cell carcinoma; from tissue; host or cells: human granulocytes, human monocytes, normal lung, non-small cell lung carcinoma tissue, vascular tissue
- Sequence (P35372 1-314 isoform P35372-14): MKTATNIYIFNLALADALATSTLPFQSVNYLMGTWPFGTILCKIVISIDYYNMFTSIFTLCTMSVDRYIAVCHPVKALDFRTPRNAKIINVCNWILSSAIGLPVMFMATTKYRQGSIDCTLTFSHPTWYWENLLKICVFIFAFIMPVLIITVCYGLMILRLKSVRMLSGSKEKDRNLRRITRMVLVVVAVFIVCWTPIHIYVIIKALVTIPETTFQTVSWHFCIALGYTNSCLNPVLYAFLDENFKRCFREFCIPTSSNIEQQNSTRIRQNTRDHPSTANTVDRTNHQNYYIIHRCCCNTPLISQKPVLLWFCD
- assayName: biochemical
- Format: binding
- measurementConditions: GRANULOCYTES membranes; 40 nM [3H]-DHM; mean ± SEM, three experiments; read-out: Displacement of [3H]-DHM IC50
quantityName: IC50

In: // query IC50 value for entry CSCC[C@H](NC(=O)[C@H](Cc1ccccc1)NC(=O)CNC(=O)[C@@H](C)NC(=O)[C@@H](N)Cc1ccc(O)cc1)C(N)=O [DAMA, (D-Ala^2, Met^5)-enkephalinamide]
Out: > 1000 nM
